Values from patent US7705023B2

# target of assay: human mPGES-1 (Homo sapiens, UniProt O14684)
# Sequence (O14684 1-152): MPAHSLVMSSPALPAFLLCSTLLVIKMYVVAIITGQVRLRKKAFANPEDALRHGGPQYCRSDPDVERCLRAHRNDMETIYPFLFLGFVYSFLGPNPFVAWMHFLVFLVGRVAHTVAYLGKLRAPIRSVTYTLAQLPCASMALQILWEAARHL

{"columns": ["cpd smiles", "IC50 / nM"],
 "data": [
  ["CC(C)(C)c1ccc(-c2ccc3c(c2)cc(C(=O)O)n3-c2ccc(C3CCCCC3)cc2)cc1", 170],
  ["O=C(O)c1c(Cl)c2cc(-c3ccc(C(F)(F)F)cn3)ccc2n1-c1ccc(OC2CCCC2)nc1", 1100]
]}
